Provenance of the data: EPA's ToxValDB 9.5

Test system: Mus musculus
Conditions: repeat dose other; oral
Label key: rule met means LOAEL under 20 mg/kg-day; rule not met means LOAEL of 20 mg/kg-day or more.

                                   compound    class_name
0  CCC[CH2][Sn]([CH2]CCC)([CH2]CCC)[O][Sn]([CH2]CCC)([CH2]CCC)[CH2]CCC [Bis(tributyltin)oxide]  rule not met
1  ClC1=C(Cl)C2(Cl)C3C(Cl)C(Cl)CC3C1(Cl)C2(Cl)Cl (stereo unspecified)      rule met
2  [Na+].[O]=[Nb](=[O])[O-] [Sodium niobate (NaNbO3)]      rule met
3                                 Cc1ccccc1  rule not met
4  ClC1=C(Cl)[C@]2(Cl)[C@@H]3[C@H]4C[C@H]([C@@H]5O[C@H]45)[C@@H]3[C@@]1(Cl)C2(Cl)Cl      rule met
5    [Cl][Al]([Cl])[Cl] [Aluminum chloride]      rule met
